Listed here: items and their measured composite z-score.
- assayed system: Left-right determination factor 2 (Homo sapiens) (UniProt O00292)
- Sequence (O00292 whole entry, looked up): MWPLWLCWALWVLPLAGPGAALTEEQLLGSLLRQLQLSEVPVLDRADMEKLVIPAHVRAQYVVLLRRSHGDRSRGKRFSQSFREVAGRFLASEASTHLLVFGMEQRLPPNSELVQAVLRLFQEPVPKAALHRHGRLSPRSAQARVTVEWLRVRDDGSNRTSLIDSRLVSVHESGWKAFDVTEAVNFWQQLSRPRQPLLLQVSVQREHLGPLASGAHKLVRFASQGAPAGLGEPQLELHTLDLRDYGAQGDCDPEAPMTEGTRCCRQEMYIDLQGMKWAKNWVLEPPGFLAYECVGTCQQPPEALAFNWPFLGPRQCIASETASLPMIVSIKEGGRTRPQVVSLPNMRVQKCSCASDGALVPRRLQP
- test name: LEFTY2 binders on small-molecule microarrays, primary screen, biochemical, small-molecule microarray, 635 nm fluorescence scan (AID 1110)
- settings: LEFTY2 binding, higher = more signal
# print the numeric value only

Known results for compounds:
[[record]]
compound = "CC(C)N1CC=CC23O[C@@H]4/C=C\\CCCOC(=O)C4[C@H]2C(=O)N(CCO)[C@@H]3C1=O (some centres undefined)"
measured_attribute = "composite z-score"
measured_number = -0.999

[[record]]
compound = "COc1cccc([C@H]2N[C@H](C(=O)O)CC[C@@H]2C)c1"
measured_attribute = "composite z-score"
measured_number = 0.0589

[[record]]
compound = "CC1CC/C=C\\[C@H]2OC34C=CCN(Cn5nnc6ccccc65)C(=O)[C@H]3N(C(C)CO)C(=O)[C@@H]4C2C(=O)O1 (some centres undefined)"
measured_attribute = "composite z-score"
measured_number = -0.371

[[record]]
compound = "O=C1C2C=CC(C(O)c3ccccc3)N(n3cnnc3)C2C(=O)N1Cc1ccccc1 (centres undefined)"
measured_attribute = "composite z-score"
measured_number = -0.237

[[record]]
compound = "COc1cccc([C@@H]2[C@@H](C)CC[C@H]3C(=O)N(C)[C@@H](C(C)C)C(=O)N23)c1"
measured_attribute = "composite z-score"
measured_number = 0.375


Ask: // composite z-score lookup, key: C=CC[C@]1(C(=O)N2CCCCC2)N=C(c2ccc(OCCCO)cc2)O[C@H]1c1ccccc1N=[N+]=[N-]
Reply: 0.218

Ask: // composite z-score lookup, key: O=C1c2ccccc2[C@](Cc2ccccc2I)(C(=O)NCc2ccccc2)[C@H](c2ccc(CO)cc2)N1Cc1ccccc1C(F)(F)F
Reply: -1.38

Ask: // composite z-score lookup, key: C#CCNC(/C=C/c1ccccc1)CO (centres undefined)
Reply: 0.421

Ask: // composite z-score lookup, key: O=C/C=C/c1ccc(/C=C/c2ccccc2)cc1
Reply: 0.0281
